tested on: RAW264.7 cells; assay: Cell proliferation (MTT) assay, RAW264.7; conditions: RAW264.7 cells, 48 h treatment
Quick reference for IC50 (cell viability, MTT) among some compounds
Form entry: value (µg/mL) — number only.

Some solved entries appear below for comparison.
1) NC1=[S+][Ni-2]2([P+](c3ccccc3)(c3ccccc3)c3ccccc3)[O]c3c(O)cccc3C=[N+]2N1.[Cl-] (stereo not shown): 28.63
2) CNC(=S)NN=Cc1cccc(O)c1[O-].[Cl-].[Ni+2].c1ccc(P(c2ccccc2)c2ccccc2)cc1: 37.73
3) Oc1cccc2c1[O][Ni-2]1([P+](c3ccccc3)(c3ccccc3)c3ccccc3)[S]C(Nc3ccccc3)=N[N+]1=C2 (stereo not shown): 42.44

Let us move to another entry and its IC50 (cell viability, MTT).
// recorded IC50 (cell viability, MTT) for CCNC1=N[N+]2=Cc3cccc(O)c3[O][Ni-2]2([P+](c2ccccc2)(c2ccccc2)c2ccccc2)[S]1 (stereo not shown) : 56.31

----------
assay: ORAC antioxidant assay; format: physicochemical
Quick reference for Antioxidant capacity, Trolox equivalent among some compounds
Form entry: value (µM TE per 100 µM) — number only.

Some solved entries appear below for comparison.
1) Oc1cccc2c1[O][Ni-2]1([P+](c3ccccc3)(c3ccccc3)c3ccccc3)[S]C(Nc3ccccc3)=N[N+]1=C2 (stereo not drawn): 9.37
2) O=c1c(O)c(-c2ccc(O)c(O)c2)oc2cc(O)cc(O)c12 [Quercetin, quercetin dehydrate, reference compound]: 24.41
3) CCNC(=S)N/N=C/c1cccc(O)c1O: 7.54
4) NC1=[S+][Ni-2]2([P+](c3ccccc3)(c3ccccc3)c3ccccc3)[O]c3c(O)cccc3C=[N+]2N1.[Cl-] (stereo not drawn): 10.56
5) CNC(=S)NN=Cc1cccc(O)c1[O-].[Cl-].[Ni+2].c1ccc(P(c2ccccc2)c2ccccc2)cc1: 15.65
6) CCNC1=N[N+]2=Cc3cccc(O)c3[O][Ni-2]2([P+](c2ccccc2)(c2ccccc2)c2ccccc2)[S]1 (stereo not drawn): 13.34
7) Oc1cccc(/C=N/NC(=S)Nc2ccccc2)c1O: 9.71
8) NC(=S)N/N=C/c1cccc(O)c1O: 5.18

Let us move to another entry and its Antioxidant capacity, Trolox equivalent.
// recorded Antioxidant capacity, Trolox equivalent for CNC(=S)N/N=C/c1cccc(O)c1O : 8.23

----------
Quick reference for IC50 (cell viability, MTT) among some molecules
tested on: HeLa S3 cells; assay: Cell proliferation (MTT) assay, HeLa S3; conditions: HeLa S3 cells, 48 h treatment
Form entry: value (µg/mL) — number only.

// recorded IC50 (cell viability, MTT) for CNC(=S)NN=Cc1cccc(O)c1[O-].[Cl-].[Ni+2].c1ccc(P(c2ccccc2)c2ccccc2)cc1 [complex 6] : 77.55

// recorded IC50 (cell viability, MTT) for NC1=[S+][Ni-2]2([P+](c3ccccc3)(c3ccccc3)c3ccccc3)[O]c3c(O)cccc3C=[N+]2N1.[Cl-] (stereo not shown) [complex 5] : 29.31

----------
system: RAW264.7 cells; experiment: Cell proliferation (MTT) assay, RAW264.7; settings: Mus musculus, RAW264.7, 48 h, read-out: IC50 (cell viability, MTT)
experimentalEndpoint: IC50 (µg/mL)
Form entry: value (µg/mL) — number only.

1) CNC(=S)N/N=C/c1cccc(O)c1O [ligand 2]: 27.8

// recorded IC50 for Oc1cccc(/C=N/NC(=S)Nc2ccccc2)c1O [ligand 3] : 31.5

// recorded IC50 for NC(=S)N/N=C/c1cccc(O)c1O [ligand 1] : 22.8

// recorded IC50 for CCNC(=S)N/N=C/c1cccc(O)c1O [ligand 4] : 19.4
